# pIC50 listing for each entry below
Target Or Test System: hERG K+ channel (Homo sapiens)
Sequence (Q12809 whole entry): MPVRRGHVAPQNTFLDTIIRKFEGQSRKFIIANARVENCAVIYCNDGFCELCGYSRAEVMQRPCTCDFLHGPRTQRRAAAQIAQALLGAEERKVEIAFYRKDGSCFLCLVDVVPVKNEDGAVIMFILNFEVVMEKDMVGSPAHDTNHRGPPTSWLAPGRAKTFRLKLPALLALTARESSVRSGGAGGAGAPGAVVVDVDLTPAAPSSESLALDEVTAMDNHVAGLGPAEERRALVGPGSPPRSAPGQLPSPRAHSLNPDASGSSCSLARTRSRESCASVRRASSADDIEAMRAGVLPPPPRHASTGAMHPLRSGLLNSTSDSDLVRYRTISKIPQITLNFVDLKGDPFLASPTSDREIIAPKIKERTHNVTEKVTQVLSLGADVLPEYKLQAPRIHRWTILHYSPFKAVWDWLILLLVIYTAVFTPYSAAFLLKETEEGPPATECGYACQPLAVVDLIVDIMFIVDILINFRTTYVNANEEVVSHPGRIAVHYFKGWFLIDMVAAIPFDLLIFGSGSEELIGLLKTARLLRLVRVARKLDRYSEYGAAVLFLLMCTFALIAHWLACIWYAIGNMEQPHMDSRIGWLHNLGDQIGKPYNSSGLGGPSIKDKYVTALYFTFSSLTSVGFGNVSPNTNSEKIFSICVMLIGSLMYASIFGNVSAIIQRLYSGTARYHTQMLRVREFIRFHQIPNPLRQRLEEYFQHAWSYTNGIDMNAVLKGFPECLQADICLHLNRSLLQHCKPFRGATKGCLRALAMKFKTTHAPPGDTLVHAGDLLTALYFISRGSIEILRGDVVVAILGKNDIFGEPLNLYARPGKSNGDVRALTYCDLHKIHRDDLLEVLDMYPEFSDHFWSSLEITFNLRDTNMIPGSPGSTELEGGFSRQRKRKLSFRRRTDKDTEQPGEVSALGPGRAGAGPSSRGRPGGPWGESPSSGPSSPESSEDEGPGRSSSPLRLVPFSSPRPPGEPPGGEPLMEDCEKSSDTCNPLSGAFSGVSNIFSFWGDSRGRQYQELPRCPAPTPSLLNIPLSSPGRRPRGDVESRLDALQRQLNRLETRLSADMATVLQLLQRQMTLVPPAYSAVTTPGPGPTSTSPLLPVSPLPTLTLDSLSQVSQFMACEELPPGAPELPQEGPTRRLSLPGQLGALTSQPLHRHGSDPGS
Protocol Notes: Evaluation of hERG K+ channel inhibitory activity using cells expressing human ERG (automated patch-clamp, CHO-K1)
Particulars: CHO-K1 cells with human ERG gene, tested at 1, 3 and 10 μmol/L, 5-minute incubation
pIC50: −log10 of the molar value.

Some compounds with known pIC50 results, for comparison:
| Compound Structure | pIC50 |
| --- | --- |
| Cc1ncc(-c2cc(F)cc(F)c2)c(N2CC[C@@H](N)[C@@H](O)C2)c1-c1nc2cc(F)c(F)c(F)c2[nH]1 | ≤ 5.00 |
| COc1cc2nc(-c3cncc(-c4cc(F)cc(F)c4)c3N3CC[C@@H](NCCC(F)(F)F)[C@@H](O)C3)[nH]c2cc1F | ≤ 5.00 |

Record O[C@H]1CN(c2c(-c3cc(F)cc(Cl)c3)cncc2-c2nc3cc(F)c(F)cc3[nH]2)CC[C@H]1NCCC(F)(F)F , field pIC50: ≤ 5.00
